- TARGET OR TEST SYSTEM: HLA-A*02:01 (Homo sapiens, UniProt P04439, D140Y/D185E/D98H/E176V/E277Q/G131W/G231S/I119V/I121R/I166T/I218V/L300P/L318F/N151K/N90K/P208A/P217A/Q86G/Q94H/R138H/R169H/T345S)
- PROTOCOL: MHC binding assay (UV-ligand exchange, β2m ELISA, peptide exchange yield)
- EXPERIMENTAL SETUP: MHC class I binding score; binding to HLA-A*02:01 ranged by peptide exchange yield (UV-ligand exchange, β2m ELISA)
ASSAY METRIC: Peptide exchange

SUBSTANCE	ASSAY METRIC	RESULT
591 (SMAELDIKL; listed as Homo sapiens) [compound 591]	Peptide exchange	“+++” (≧50 = +++)
548 (ALWENPESGEL; listed as Homo sapiens) [compound 548]	Peptide exchange	“++” (≧20% = ++)
210 (LLLNAVLTV; listed as Homo sapiens) [compound 210]	Peptide exchange	“++” (≧20% = ++)
584 (ALAEVAAMENV; listed as Homo sapiens) [compound 584]	Peptide exchange	“+++” (≧50 = +++)
145 (FLATSGTLAGI; listed as Homo sapiens) [compound 145]	Peptide exchange	“++” (≧20% = ++)

Let us move to another entry and its Peptide exchange.
# input Suppose we examine the substance 328 (ALNDQVFEI; listed as Homo sapiens) [compound 328] ; what Peptide exchange value has been reported?
# output “+++” (≧50 = +++)
